# ASSAYED_TARGET: monoMYC (4) (synthetic) (UniProt P01106)
# Sequence (P01106 365-423): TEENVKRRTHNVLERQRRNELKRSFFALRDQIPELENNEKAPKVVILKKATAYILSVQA
# PROCEDURE_DETAILS: EMSA
PARAMETER: Kd (nM)
Write the value in nM as a bare number.

Give the value of Kd reported for the following: ACCCCACCACGTGGTGCCT (double strand) [E-Box DNA]
969
